# Test system: HSL
# PROTOCOL DETAILS: HSL mRNA expression in adipocytes (real-time PCR)
# Assay type: cell-based, human
# CONDITION NOTES: differentiating adipocytes transfected with oligomeric compound; Table 75
In the oligonucleotide strings, read from the 5' end, every base follows the letter of its sugar. An asterisk marks phosphorothioate; unmarked linkages are phosphodiester. Other units and linkages are bracketed, terminal groups are in braces. A string of capitals states the bases alone. e = 2'-O-(2-methoxyethyl) (MOE); [5mC] = 5-methylcytosine
Record form. Attribute: HSL mRNA. Fill in for each entry.

Take a look at these entries with their results.
# SUBSTANCE, HSL mRNA
measured = [
    ("341804 (antisense ATCTGCACTGTCAGCACTTT; all 2'-MOE, all phosphorothioate, methylation of C not given here) [compound 341804]", "75 percentage of untreated control (UTC)"),
    ("344276 (antisense CAGGCAUAGGAUGACAAAGGGAA; all 2'-MOE, all phosphorothioate, methylation of C and T or U not given here) [compound 344276]", "68 percentage of untreated control (UTC)"),
    ("346917 (CAGCUAUGCCAGCAUCUUGCCU; all 2'-MOE, all phosphorothioate, methylation of C and T or U not given here) [compound 346917]", "27 percentage of untreated control (UTC)"),
    ("328127 (antisense eA*eA*e[5mC]*eG*eA*eT*eA*eA*eA*eA*e[5mC]*eA*eT*eA*e[5mC]*eT*eT*eG*eT*e[5mC]*eA) [compound 328127]", "93 percentage of untreated control (UTC)"),
]

Return reported HSL mRNA values for all items listed beneath this line.
1. 327921 (antisense e[5mC]*eT*eT*e[5mC]*e[5mC]*eA*eG*eT*e[5mC]*eG*eG*eG*eG*eA*eT*eG*eT*eT*eT*eA*e[5mC]*eA) [compound 327921]
2. 328133 (eT*eG*eA*eA*eG*eG*eT*eT*e[5mC]*eG*eG*eA*eG*eA*eT*eA*eG*eG*e[5mC]*eT*eA; anti-miR) [compound 328133]
3. 327902 (antisense eG*eG*e[5mC]*eT*eG*eT*e[5mC]*eA*eA*eT*eT*e[5mC]*eA*eT*eA*eG*eG*eT*e[5mC]*eA*eG) [compound 327902]
4. 341805 (antisense ACCCTTATCAGTTCTCCGTCCA; all 2'-MOE, all phosphorothioate, methylation of C not given here) [compound 341805]

## Result
1: 76 percentage of untreated control (UTC); 2: 49 percentage of untreated control (UTC); 3: 56 percentage of untreated control (UTC); 4: 86 percentage of untreated control (UTC)

====

# System: BJ, B16-F10, T47D, T47Dp53 and HeLa cells
# PROTOCOL DETAILS: Cell cycle assay (propidium iodide flow cytometry), cell line panel
# Type: cell-based
# CONDITION NOTES: 150 nM oligomeric compound, 4.5 μg/ml LIPOFECTIN, after 72 hours, propidium iodide flow cytometry
In the oligonucleotide strings, read from the 5' end, every base follows the letter of its sugar. An asterisk marks phosphorothioate; unmarked linkages are phosphodiester. Other units and linkages are bracketed, terminal groups are in braces. A string of capitals states the bases alone. e = 2'-O-(2-methoxyethyl) (MOE); [5mC] = 5-methylcytosine; d = 2'-deoxy (DNA)
OBSERVABLE: G2/M (percentage of cells in phase of the cell cycle) (%)
Answers are plain numbers, in %.

// worked examples, G2/M (percentage of cells in phase of the cell cycle) included
# SUBSTANCE, TESTED TARGET, OBSERVED
data = [
    ("328342 (e[5mC]*eA*eA*eT*eT*dG*d[5mC]*dG*d[5mC]*dT*dA*d[5mC]*dA*dG*dA*eA*e[5mC]*eT*eG*eT) [compound 328342]", "BJ, B16-F10, T47D, T47Dp53 and HeLa cells", 12.8),
    ("327906 (antisense eT*e[5mC]*eA*eT*eA*eG*e[5mC]*e[5mC]*e[5mC]*eT*eG*eT*eA*e[5mC]*eA*eA*eT*eG*e[5mC]*eT*eG*e[5mC]*eT) [compound 327906]", "BJ, B16-F10, T47D, T47Dp53 and HeLa cells", 20.9),
]

## Task Field request: G2/M (percentage of cells in phase of the cell cycle) | item: 327928 (antisense eA*eA*e[5mC]*e[5mC]*eG*eA*eT*eT*eT*e[5mC]*eA*eG*eA*eT*eG*eG*eT*eG*e[5mC]*eT*eA*eG) [compound 327928]
## Result 16

====

# Tested on: Glut4
# PROTOCOL DETAILS: Glut4 mRNA expression in adipocytes (real-time PCR)
# Assay type: cell-based, human
# CONDITION NOTES: differentiating adipocytes transfected with oligomeric compound; Table 75
In the oligonucleotide strings, read from the 5' end, every base follows the letter of its sugar. An asterisk marks phosphorothioate; unmarked linkages are phosphodiester. Other units and linkages are bracketed, terminal groups are in braces. A string of capitals states the bases alone. e = 2'-O-(2-methoxyethyl) (MOE); [5mC] = 5-methylcytosine
Assignment: determine reported GLUT4 mRNA for the given substances.

Past entries and their recorded results:
# SUBSTANCE, TESTED TARGET, OBSERVABLE, OBSERVED
data = [
    ("327945 (antisense e[5mC]*eT*eG*eT*eT*e[5mC]*e[5mC]*eT*eG*e[5mC]*eT*eG*eA*eA*e[5mC]*eT*eG*eA*eG*e[5mC]*e[5mC]*eA) [compound 327945]", "Glut4", "GLUT4 mRNA", "26 percentage of untreated control (UTC)"),
    ("341801 (antisense CCUAUCUCCCCUCUGGACC; all 2'-MOE, all phosphorothioate, methylation of C and T or U not given here) [compound 341801]", "Glut4", "GLUT4 mRNA", "77 percentage of untreated control (UTC)"),
    ("328110 (antisense eG*eA*eT*eA*eA*eA*eG*e[5mC]*e[5mC]*eA*eA*eT*eA*eA*eA*e[5mC]*eT*eG*eT*e[5mC]*eA) [compound 328110]", "Glut4", "GLUT4 mRNA", "77 percentage of untreated control (UTC)"),
    ("340352 (antisense CACAAGAUCGGAUCUACGGGUU; all 2'-MOE, all phosphorothioate, methylation of C and T or U not given here) [compound 340352]", "Glut4", "GLUT4 mRNA", "97 percentage of untreated control (UTC)"),
]

## Task Could you tell me which GLUT4 mRNA is on file for 328094 (antisense eT*eT*eG*eT*eA*eA*eG*e[5mC]*eA*eG*eT*eT*eT*eT*eG*eT*eT*eG*eA*e[5mC]*eA) [compound 328094] ?
## Result 83 percentage of untreated control (UTC)

====

# Tested on: adipocytes
# PROTOCOL DETAILS: Triglyceride accumulation assay in adipocytes
# Assay type: cell-based, human
# CONDITION NOTES: differentiating adipocytes transfected with oligomeric compound; Table 75
# Procedure: The triglyceride accumulation assay measures the synthesis of triglyceride by adipocytes. Triglyceride accumulation is measured using the Infinity™ Triglyceride reagent kit (Sigma-Aldrich, St. Louis, Mo.). […] Triglyceride accumulation is measured based on the amount of glycerol liberated from triglycerides by the enzyme lipoprotein lipase. […] Dye absorbance, which is proportional to the concentration of glycerol, is measured at 515 nm using an UV spectrophotometer. […]
In the oligonucleotide strings, read from the 5' end, every base follows the letter of its sugar. An asterisk marks phosphorothioate; unmarked linkages are phosphodiester. Other units and linkages are bracketed, terminal groups are in braces. A string of capitals states the bases alone. e = 2'-O-(2-methoxyethyl) (MOE); [5mC] = 5-methylcytosine
OBSERVABLE: TG (triglyceride accumulation)

Example results:
# SUBSTANCE, TG (triglyceride accumulation)
records = [
    ("328109 (antisense eA*eA*eA*eG*eA*eA*eG*eT*eA*eT*eA*eT*eG*e[5mC]*eA*eT*eA*eG*eG*eA*eA) [compound 328109]", "23 percentage of untreated control (UTC)"),
    ("348116 (UUCGCCCUCUCAACCCAGCUUUU; anti-miR; all 2'-MOE, all phosphorothioate, methylation of C and T or U not given here) [compound 348116]", "43 percentage of untreated control (UTC)"),
    ("327900 (antisense e[5mC]*eT*eG*e[5mC]*e[5mC]*eT*eG*eT*e[5mC]*eT*eG*eT*eG*e[5mC]*e[5mC]*eT*eG*e[5mC]*eT*eG*eT) [compound 327900]", "26 percentage of untreated control (UTC)"),
    ("328096 (antisense e[5mC]*e[5mC]*eT*e[5mC]*eT*e[5mC]*eA*eA*eA*eG*eA*eT*eT*eT*e[5mC]*e[5mC]*eT*eG*eT*e[5mC]*eA) [compound 328096]", "74 percentage of untreated control (UTC)"),
    ("346908 (GCUUUGACAAUACUAUUGCACUG; all 2'-MOE, all phosphorothioate, methylation of C and T or U not given here) [compound 346908]", "75 percentage of untreated control (UTC)"),
]

# batch: return TG (triglyceride accumulation) for each of the 5 substances below
1. 328137 (eG*eT*eA*eA*eG*e[5mC]*eG*e[5mC]*eA*eG*e[5mC]*eT*e[5mC]*e[5mC]*eA*e[5mC]*eA*eG*eG*e[5mC]*eT; anti-miR) [compound 328137]
2. 327911 (antisense eG*e[5mC]*eT*eA*e[5mC]*e[5mC]*eT*eG*e[5mC]*eA*e[5mC]*eT*eG*eT*eA*eA*eG*e[5mC]*eA*e[5mC]*eT*eT*eT*eT) [compound 327911]
3. 348124 (CACAAAUUCGGUUCUACAGGGUA; anti-miR; all 2'-MOE, all phosphorothioate, methylation of C and T or U not given here) [compound 348124]
4. 348125 (GCUGGAUGCAAACCUGCAAAACU; anti-miR; all 2'-MOE, all phosphorothioate, methylation of C and T or U not given here) [compound 348125]
5. 327907 (antisense eA*eG*e[5mC]*e[5mC]*eT*eA*eT*e[5mC]*e[5mC]*eT*eG*eG*eA*eT*eT*eA*e[5mC]*eT*eT*eG*eA*eA) [compound 327907]

## Result
37 percentage of untreated control (UTC)
59 percentage of untreated control (UTC)
53 percentage of untreated control (UTC)
79 percentage of untreated control (UTC)
19 percentage of untreated control (UTC)
